target: HSP27 alpha crystallin domain (ACD) (human); assay: ITC
No end group written: not given here.
Attribute measured: Kd (µM)

Binder | Reported measurement
EITIPVTHE (not fully specified) [HSP27 IXI peptide 178…186 (F185H), unmodified, without biotin] | 14.3
